Target: T1, Human NPR-B (R&D system) (human, UniProt P20594 23-458, limits assumed)
T1 construct: Bought protein immobilised on the Biacore chip; also called NBR-B; natriuretic peptide receptor B
T1 sequence (looked up): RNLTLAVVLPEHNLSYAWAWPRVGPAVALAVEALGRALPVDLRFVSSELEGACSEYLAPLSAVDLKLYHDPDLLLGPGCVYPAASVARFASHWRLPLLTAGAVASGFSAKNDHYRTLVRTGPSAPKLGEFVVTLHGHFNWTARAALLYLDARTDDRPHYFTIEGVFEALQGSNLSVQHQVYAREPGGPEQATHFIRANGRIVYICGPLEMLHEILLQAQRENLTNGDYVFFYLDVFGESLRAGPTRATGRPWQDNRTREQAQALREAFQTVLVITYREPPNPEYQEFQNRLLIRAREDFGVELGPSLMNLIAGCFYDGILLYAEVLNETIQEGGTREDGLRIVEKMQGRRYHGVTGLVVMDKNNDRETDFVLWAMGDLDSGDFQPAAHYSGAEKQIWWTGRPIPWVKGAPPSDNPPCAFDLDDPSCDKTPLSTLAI
Experiment: SPR (Biacore 3000), human NPR-B amine-coupled to CM5 chip, single-cycle kinetics, 1:1 Langmuir fit
Readout: Kd (nM)
The answer is to be given in nM; state only the numeric part.

Incoming: I would be grateful if you could share the reported Kd for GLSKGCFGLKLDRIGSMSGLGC (also called C-type natriuretic peptide) [CNP-22] .
Outgoing: 0.0346
